The origin of these recorded values is patent US20250147039A1.

- ASSAY NOTES: Formation of 1,5-cz-[M(Lig)] from Lig and M^III ions (metal dependent click-zip) (Charts 4, 5)
- Type: physicochemical
- SETTINGS: 1 week at 80° C.; MOPS/NaOH buffer pH 7.0
READOUT LABEL: conversion to 1,5-cz-[Ln(Lig)] with hydrolysed group in the side chain, Y^III (%)
Report the value in % with no unit label.

Past entries and their recorded results:
STRUCTURE AS SMILES | UNIT STRING | EXPERIMENTAL RESULT
C#Cc1cccc(CN2CCN(CC(=O)O)CCN(Cc3cc(C(=O)OC(C)(C)C)cc(CN=[N+]=[N-])n3)CCN(CC(=O)O)CC2)n1 | % | 90
C#Cc1cccc(CN2CCN(CC(=O)O)CCN(Cc3cc(C(=O)OC(C)C)cc(CN=[N+]=[N-])n3)CCN(CC(=O)O)CC2)n1 | % | 94
CC(C)(C#Cc1cccc(CN2CCN(CC(=O)O)CCN(Cc3cccc(CN=[N+]=[N-])n3)CCN(CC(=O)O)CC2)n1)NC(=O)OC(C)(C)C | % | 87

Next:
Q) Field request: conversion to 1,5-cz-[Ln(Lig)] with hydrolysed group in the side chain, Y^III | item: `C#Cc1cccc(CN2CCN(CC(=O)O)CCN(Cc3cc(C(=O)OC)cc(CN=[N+]=[N-])n3)CCN(CC(=O)O)CC2)n1`
A) 95

* * *

- ASSAY NOTES: Formation of 1,5-cz-[Ln(Lig)] from Lig and Ln^III ions (metal dependent click-zip), MOPS/NaOH buffer pH 7.0, analytical HPLC (Charts 1, 2)
- SETTINGS: Ce^III; after 1 week at 80° C.; MOPS/NaOH buffer pH 7.0
Item-by-item account of conversion to 1,5-cz-[Ln(Lig)], Ce^III
Report the value in % with no unit label.

Past entries and their recorded results:
STRUCTURE AS SMILES | conversion to 1,5-cz-[Ln(Lig)], Ce^III [%]
C#Cc1cccc(CN2CCN(CC(=O)O)CCN(Cc3cc(-c4ccc(C(=O)O)cc4)cc(CN=[N+]=[N-])n3)CCN(CC(=O)O)CC2)n1 | 43
[N-]=[N+]=NCc1cccc(CN2CCN(CC(=O)O)CCN(Cc3cccc(C#Cc4ccccc4)n3)CCN(CC(=O)O)CC2)n1 | 3
CC(C)(N)C#Cc1cccc(CN2CCN(CC(=O)O)CCN(Cc3cc(-c4ccccc4)cc(CN=[N+]=[N-])n3)CCN(CC(=O)O)CC2)n1 | 4
C#Cc1cccc(CN2CCN(CC(=O)O)CCN(Cc3cc(C(F)(F)F)cc(CN=[N+]=[N-])n3)CCN(CC(=O)O)CC2)n1 | 1
C#Cc1cccc(CN2CCN(CC(=O)O)CCN(Cc3cccc(CN=[N+]=[N-])n3)CCN(CC(=O)O)CC2)n1 | 25
C#Cc1cccc(CN2CCN(CC(=O)O)CCN(Cc3cc(N(C)C)cc(CN=[N+]=[N-])n3)CCN(CC(=O)O)CC2)n1 | 60
C#Cc1cccc(CN2CCN(CP(=O)(O)OCC)CCN(Cc3cccc(CN=[N+]=[N-])n3)CCN(CP(=O)(O)OCC)CC2)n1 | 0
C#Cc1cccc(CN2CCN(CC(=O)NCC(=O)O)CCN(Cc3cc(-c4ccccc4)cc(CN=[N+]=[N-])n3)CCN(CC(=O)NCC(=O)O)CC2)n1 | 0

Q) Field request: conversion to 1,5-cz-[Ln(Lig)], Ce^III | item: `[N-]=[N+]=NCc1cccc(CN2CCN(CC(=O)O)CCN(Cc3cccc(C#CC4CCNCC4)n3)CCN(CC(=O)O)CC2)n1`
A) 7

Q) Field request: conversion to 1,5-cz-[Ln(Lig)], Ce^III | item: `C#CCNC(=O)CN1CCN(CC(=O)O)CCN(Cc2cc(-c3ccccc3)cc(CN=[N+]=[N-])n2)CCN(CC(=O)O)CC1`
A) 0

Q) Field request: conversion to 1,5-cz-[Ln(Lig)], Ce^III | item: `C#Cc1cccc(CN2CCN(CC(=O)O)CCN(Cc3cc(C(=O)OC)cc(CN=[N+]=[N-])n3)CCN(CC(=O)O)CC2)n1`
A) 0

Q) Field request: conversion to 1,5-cz-[Ln(Lig)], Ce^III | item: `C#Cc1cccc(CN2CCN(CP(=O)(O)c3ccccc3)CCN(Cc3cccc(CN=[N+]=[N-])n3)CCN(CP(=O)(O)c3ccccc3)CC2)n1`
A) 0

Q) Field request: conversion to 1,5-cz-[Ln(Lig)], Ce^III | item: `C#Cc1cccc(CN2CCN(CC(=O)O)CCN(Cc3cccc(CN=[N+]=[N-])n3)CCN(CP(=O)(O)O)CC2)n1`
A) 40

* * *

- ASSAY NOTES: Formation of 1,5-cz-[Ln(Lig)] from Lig and Ln^III ions (metal dependent click-zip), MOPS/NaOH buffer pH 7.0, analytical HPLC (Charts 1, 2)
- SETTINGS: Eu^III; after 1 hour at 80° C.; MOPS/NaOH buffer pH 7.0
Rule: measured conversion to 1,5-cz-[Ln(Lig)], Eu^III below 1% gets yes; anything equal to or greater than 1% gets no.

Examples from the recorded data:
STRUCTURE AS SMILES | CLASSIFICATION
C#Cc1cccc(CN2CCN(CC(=O)O)CCN(Cc3cc(C(F)(F)F)cc(CN=[N+]=[N-])n3)CCN(CC(=O)O)CC2)n1 | no
C#Cc1cccc(CN2CCN(CC(=O)O)CCN(Cc3cc(C(=O)OC)cc(CN=[N+]=[N-])n3)CCN(CC(=O)O)CC2)n1 | no

Q) A record lists `C#Cc1cccc(CN2CCN(CC(=O)O)CCN(Cc3cccc(CN=[N+]=[N-])n3)CCN(CP(=O)(O)O)CC2)n1` . Is its conversion to 1,5-cz-[Ln(Lig)], Eu^III below 1%?
A) no

Q) A record lists `C#Cc1cccc(CN2CCN(CC(=O)NCC(=O)O)CCN(Cc3cc(-c4ccccc4)cc(CN=[N+]=[N-])n3)CCN(CC(=O)NCC(=O)O)CC2)n1` . Is its conversion to 1,5-cz-[Ln(Lig)], Eu^III below 1%?
A) no

Q) A record lists `[N-]=[N+]=NCc1cccc(CN2CCN(CC(=O)O)CCN(Cc3cccc(C#Cc4ccccc4)n3)CCN(CC(=O)O)CC2)n1` . Is its conversion to 1,5-cz-[Ln(Lig)], Eu^III below 1%?
A) yes

Q) A record lists `CC(C)(N)C#Cc1cccc(CN2CCN(CC(=O)O)CCN(Cc3cc(-c4ccccc4)cc(CN=[N+]=[N-])n3)CCN(CC(=O)O)CC2)n1` . Is its conversion to 1,5-cz-[Ln(Lig)], Eu^III below 1%?
A) no

* * *

- ASSAY NOTES: Formation of 1,5-cz-[Ln(Lig)] from Lig and Ln^III ions (metal dependent click-zip), MOPS/NaOH buffer pH 7.0, analytical HPLC (Charts 1, 2)
- SETTINGS: Nd^III; after 1 hour at 80° C.; MOPS/NaOH buffer pH 7.0
READOUT LABEL: conversion to 1,5-cz-[Ln(Lig)], Nd^III (%)
Report the value in % with no unit label.

Past entries and their recorded results:
STRUCTURE AS SMILES | READOUT LABEL | UNIT STRING | EXPERIMENTAL RESULT
C#Cc1cccc(CN2CCN(CC(=O)O)CCN(Cc3cc(C(=O)OC)cc(CN=[N+]=[N-])n3)CCN(CC(=O)O)CC2)n1 | conversion to 1,5-cz-[Ln(Lig)], Nd^III | % | 1
CC(C)(C)C#Cc1cccc(CN2CCN(CC(=O)O)CCN(Cc3cccc(CN=[N+]=[N-])n3)CCN(CC(=O)O)CC2)n1 | conversion to 1,5-cz-[Ln(Lig)], Nd^III | % | 0
C#Cc1cccc(CN2CCN(CC(=O)O)CCN(Cc3cccc(CN=[N+]=[N-])n3)CCN(CP(=O)(O)O)CC2)n1 | conversion to 1,5-cz-[Ln(Lig)], Nd^III | % | 3

Q) Field request: conversion to 1,5-cz-[Ln(Lig)], Nd^III | item: `[N-]=[N+]=NCc1cccc(CN2CCN(CC(=O)O)CCN(Cc3cccc(C#CC45CC6CC(CC(C6)C4)C5)n3)CCN(CC(=O)O)CC2)n1`
A) 0

Q) Field request: conversion to 1,5-cz-[Ln(Lig)], Nd^III | item: `[N-]=[N+]=NCc1cccc(CN2CCN(CC(=O)O)CCN(Cc3cccc(C#CC4CC4)n3)CCN(CC(=O)O)CC2)n1`
A) 0

Q) Field request: conversion to 1,5-cz-[Ln(Lig)], Nd^III | item: `C#Cc1cccc(CN2CCN(CP(=O)(O)c3ccccc3)CCN(Cc3cccc(CN=[N+]=[N-])n3)CCN(CP(=O)(O)c3ccccc3)CC2)n1`
A) 4

Q) Field request: conversion to 1,5-cz-[Ln(Lig)], Nd^III | item: `C#Cc1cccc(CN2CCN(CC(=O)O)CCN(Cc3cc(C(=O)OC(C)C)cc(CN=[N+]=[N-])n3)CCN(CC(=O)O)CC2)n1`
A) 1

Q) Field request: conversion to 1,5-cz-[Ln(Lig)], Nd^III | item: `CC(C)(C#Cc1cccc(CN2CCN(CC(=O)O)CCN(Cc3cccc(CN=[N+]=[N-])n3)CCN(CC(=O)O)CC2)n1)NC(=O)OC(C)(C)C`
A) 1
